system: A549 human lung cancer cells; assay: cell viability assay (MTT); type: cell-based; conditions: 31.25 µg/mL, 24 h, read-out: Validity (%) for sample concentrations (µg/mL) 31.25
I'd appreciate it if you could supply viability at 31.25 µg/mL values for the items below.
Respond with the bare value in %.

Query block: Find the recorded viability at 31.25 µg/mL belonging to O=C1CSC(c2ccc[nH]2)N1c1nc(-c2cc(Cl)cc3c2-c2ccc(Cl)cc2C3)cs1 (stereo not drawn) and report it.
Result block: 75.4

Query block: Find the recorded viability at 31.25 µg/mL belonging to O=C(O)c1ccc(C2C(Cl)C(=O)N2c2nc(-c3cc(Cl)cc4c3-c3ccc(Cl)cc3C4)cs2)cc1 (stereo not drawn) and report it.
Result block: 86.9

Query block: Find the recorded viability at 31.25 µg/mL belonging to O=C1C(Cl)C(c2cccs2)N1c1nc(-c2cc(Cl)cc3c2-c2ccc(Cl)cc2C3)cs1 (stereo not drawn) and report it.
Result block: 76

Query block: Find the recorded viability at 31.25 µg/mL belonging to O=C1CSC(c2ccc([N+](=O)[O-])cc2)N1c1nc(-c2cc(Cl)cc3c2-c2ccc(Cl)cc2C3)cs1 (stereo not drawn) and report it.
Result block: 87

Query block: Find the recorded viability at 31.25 µg/mL belonging to CN(C)c1ccc(C2C(Cl)C(=O)N2c2nc(-c3cc(Cl)cc4c3-c3ccc(Cl)cc3C4)cs2)cc1 (stereo not drawn) and report it.
Result block: 87.5

Query block: Find the recorded viability at 31.25 µg/mL belonging to COc1cc(C2SCC(=O)N2c2nc(-c3cc(Cl)cc4c3-c3ccc(Cl)cc3C4)cs2)ccc1O (stereo not drawn) and report it.
Result block: 90.3

Query block: Find the recorded viability at 31.25 µg/mL belonging to O=C1CSC(c2ccncc2)N1c1nc(-c2cc(Cl)cc3c2-c2ccc(Cl)cc2C3)cs1 (stereo not drawn) and report it.
Result block: 70.7

Query block: Find the recorded viability at 31.25 µg/mL belonging to COc1ccc(C2C(Cl)C(=O)N2c2nc(-c3cc(Cl)cc4c3-c3ccc(Cl)cc3C4)cs2)cc1 (stereo not drawn) and report it.
Result block: 85.8

Query block: Find the recorded viability at 31.25 µg/mL belonging to O=C1C(Cl)C(c2ccc(Br)cc2)N1c1nc(-c2cc(Cl)cc3c2-c2ccc(Cl)cc2C3)cs1 (stereo not drawn) and report it.
Result block: 77.2

Query block: Find the recorded viability at 31.25 µg/mL belonging to O=C1C(Cl)C(c2ccc[nH]2)N1c1nc(-c2cc(Cl)cc3c2-c2ccc(Cl)cc2C3)cs1 (stereo not drawn) and report it.
Result block: 58.1

Query block: Find the recorded viability at 31.25 µg/mL belonging to O=C(O)c1ccc(C2SCC(=O)N2c2nc(-c3cc(Cl)cc4c3-c3ccc(Cl)cc3C4)cs2)cc1 (stereo not drawn) and report it.
Result block: 88.7

Query block: Find the recorded viability at 31.25 µg/mL belonging to O=C1C(Cl)C(c2ccncc2)N1c1nc(-c2cc(Cl)cc3c2-c2ccc(Cl)cc2C3)cs1 (stereo not drawn) and report it.
Result block: 67.6

* * *

I'd appreciate it if you could supply viability at 31.25 µg/mL values for the items below.
tested on: WI-38 human normal fibroblast cells; assay: cell viability assay (MTT); format: cell-based; details: 31.25 µg/mL, 24 h, read-out: Validity (%) for sample concentrations (µg/mL) 31.25
Respond with the bare value in %.

Query block: Find the recorded viability at 31.25 µg/mL belonging to O=C1C(Cl)C(c2ccnc3ccccc23)N1c1nc(-c2cc(Cl)cc3c2-c2ccc(Cl)cc2C3)cs1 (centres unmarked) and report it.
Result block: 98.6

Query block: Find the recorded viability at 31.25 µg/mL belonging to O=C1C(Cl)C(c2ccc(Br)cc2)N1c1nc(-c2cc(Cl)cc3c2-c2ccc(Cl)cc2C3)cs1 (centres unmarked) and report it.
Result block: 92

Query block: Find the recorded viability at 31.25 µg/mL belonging to O=C1CSC(c2ccc[nH]2)N1c1nc(-c2cc(Cl)cc3c2-c2ccc(Cl)cc2C3)cs1 (centres unmarked) and report it.
Result block: 70.5

Query block: Find the recorded viability at 31.25 µg/mL belonging to CN(C)c1ccc(C2C(Cl)C(=O)N2c2nc(-c3cc(Cl)cc4c3-c3ccc(Cl)cc3C4)cs2)cc1 (centres unmarked) and report it.
Result block: 68.8

Query block: Find the recorded viability at 31.25 µg/mL belonging to O=C1C(Cl)C(c2ccco2)N1c1nc(-c2cc(Cl)cc3c2-c2ccc(Cl)cc2C3)cs1 (centres unmarked) and report it.
Result block: 87.3

Query block: Find the recorded viability at 31.25 µg/mL belonging to O=C1CSC(C=Cc2ccccc2)N1c1nc(-c2cc(Cl)cc3c2-c2ccc(Cl)cc2C3)cs1 (centres unmarked) and report it.
Result block: 88.2

Query block: Find the recorded viability at 31.25 µg/mL belonging to O=C1CSC(c2ccccc2)N1c1nc(-c2cc(Cl)cc3c2-c2ccc(Cl)cc2C3)cs1 (centres unmarked) and report it.
Result block: 89.8

Query block: Find the recorded viability at 31.25 µg/mL belonging to COc1cc(C2C(Cl)C(=O)N2c2nc(-c3cc(Cl)cc4c3-c3ccc(Cl)cc3C4)cs2)ccc1O (centres unmarked) and report it.
Result block: 85

Query block: Find the recorded viability at 31.25 µg/mL belonging to O=C1CSC(c2ccc(Cl)cc2)N1c1nc(-c2cc(Cl)cc3c2-c2ccc(Cl)cc2C3)cs1 (centres unmarked) and report it.
Result block: 89.7

Query block: Find the recorded viability at 31.25 µg/mL belonging to COc1ccc(C2SCC(=O)N2c2nc(-c3cc(Cl)cc4c3-c3ccc(Cl)cc3C4)cs2)cc1 (centres unmarked) and report it.
Result block: 99.4

Query block: Find the recorded viability at 31.25 µg/mL belonging to O=C(O)c1ccc(C2C(Cl)C(=O)N2c2nc(-c3cc(Cl)cc4c3-c3ccc(Cl)cc3C4)cs2)cc1 (centres unmarked) and report it.
Result block: 73.9

Query block: Find the recorded viability at 31.25 µg/mL belonging to O=C1CSC(c2ccncc2)N1c1nc(-c2cc(Cl)cc3c2-c2ccc(Cl)cc2C3)cs1 (centres unmarked) and report it.
Result block: 68.5

Query block: Find the recorded viability at 31.25 µg/mL belonging to O=C1C(Cl)C(c2ccc([N+](=O)[O-])cc2)N1c1nc(-c2cc(Cl)cc3c2-c2ccc(Cl)cc2C3)cs1 (centres unmarked) and report it.
Result block: 49

Query block: Find the recorded viability at 31.25 µg/mL belonging to O=C1CSC(c2cccs2)N1c1nc(-c2cc(Cl)cc3c2-c2ccc(Cl)cc2C3)cs1 (centres unmarked) and report it.
Result block: 80.8

Query block: Find the recorded viability at 31.25 µg/mL belonging to O=C1C(Cl)C(c2cccs2)N1c1nc(-c2cc(Cl)cc3c2-c2ccc(Cl)cc2C3)cs1 (centres unmarked) and report it.
Result block: 77.9

Query block: Find the recorded viability at 31.25 µg/mL belonging to O=C1C(Cl)C(c2ccccc2)N1c1nc(-c2cc(Cl)cc3c2-c2ccc(Cl)cc2C3)cs1 (centres unmarked) and report it.
Result block: 71.1

Query block: Find the recorded viability at 31.25 µg/mL belonging to O=C(O)c1ccc(C2SCC(=O)N2c2nc(-c3cc(Cl)cc4c3-c3ccc(Cl)cc3C4)cs2)cc1 (centres unmarked) and report it.
Result block: 96.7
